- target-desc: T1, PTHR1 on CHO-K1/Ga15/PTHR1 cells (UniProt Q03431 27-593, limits assumed)
- T1 sequence (looked up): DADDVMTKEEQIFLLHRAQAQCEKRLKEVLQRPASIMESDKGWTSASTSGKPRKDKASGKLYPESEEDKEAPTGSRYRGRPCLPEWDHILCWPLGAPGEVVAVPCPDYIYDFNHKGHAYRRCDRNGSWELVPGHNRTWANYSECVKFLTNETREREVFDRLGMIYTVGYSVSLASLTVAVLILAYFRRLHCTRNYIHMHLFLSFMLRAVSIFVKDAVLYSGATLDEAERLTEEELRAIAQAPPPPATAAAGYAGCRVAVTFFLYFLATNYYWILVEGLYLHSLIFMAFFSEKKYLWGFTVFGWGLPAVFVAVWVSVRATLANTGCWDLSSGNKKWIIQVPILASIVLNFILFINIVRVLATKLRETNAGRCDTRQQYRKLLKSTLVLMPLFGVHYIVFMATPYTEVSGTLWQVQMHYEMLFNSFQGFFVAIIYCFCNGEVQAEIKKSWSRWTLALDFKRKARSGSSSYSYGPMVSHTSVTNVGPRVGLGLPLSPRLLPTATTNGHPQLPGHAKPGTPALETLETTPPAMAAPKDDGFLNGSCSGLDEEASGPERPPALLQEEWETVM
- test-details: cell-based or functional assay
Hi there, I'd appreciate the recorded cAMP accumulation (HTRF): Emax for every entry that follows.
The answer is to be given in %; state only the numeric part.

Supply cAMP accumulation (HTRF): Emax value. Item: PIPVKDIMDLRAYLRAEYELREMLLRLLEEIF [R2-19]
324

Supply cAMP accumulation (HTRF): Emax value. Item: GVAEIQLMVDLDIIRAEYELREMLLRLLEEIF [R2-12]
154

Supply cAMP accumulation (HTRF): Emax value. Item: GVALLQIVHDFAKIRAEYELREMLLRLLEEIF [R2-5]
1580

Supply cAMP accumulation (HTRF): Emax value. Item: GIAVITLMLLRAYLELLEELVKILHELLRRYH [R2-52]
97.4

Supply cAMP accumulation (HTRF): Emax value. Item: AVAEIQLMHQRAKWGVELQLKVDLRRILEDVY [R2-35]
97

Supply cAMP accumulation (HTRF): Emax value. Item: GVAMLQILHDKAKVRAEYELREMLLRLLEEIF [R2-11]
60.8
